target_or_test_system: HLA-B*15:17
protocol_notes: IEDB peptide-MHC binding, purified MHC/direct/fluorescence; filed as Kd, often an IC50 or EC50 that approximates it; bounds were set here for any values at or beyond the usual limits of such assays
condition_parameters: source organism: Mycobacterium tuberculosis
measurement_label: Kd (nM)
Reply numerically in nM, unit not repeated.

Item RPRVAQLTF has what recorded Kd?
169

====

target_or_test_system: HLA-B*39:01
protocol_notes: IEDB peptide-MHC binding, purified MHC/direct/fluorescence; filed as Kd, often an IC50 or EC50 that approximates it; bounds were set here for any values at or beyond the usual limits of such assays
condition_parameters: source organism: Vibrio vulnificus CMCP6
pKd: −log10 of the molar value.
measurement_label: pKd

Looking for the measured pKd of PHPVVVRTL , can you help?
≤ 4.70

====

target_or_test_system: HLA-A*33:01
protocol_notes: IEDB peptide-MHC binding, purified MHC/competitive/radioactivity; filed as Kd, often an IC50 or EC50 that approximates it; bounds were set here for any values at or beyond the usual limits of such assays
condition_parameters: source organism: Mammarenavirus juninense
Listed sequences paired with reported Kd

// lookup Kd for TVFFTASLFL
≥ 70 µM

For MRYTCLNSEK , what is its reported Kd?
6.78 µM

Others:
// query Kd value for entry ACQEAVKLK
≥ 77.7 µM

====

target_or_test_system: HLA-B*44:02
protocol_notes: IEDB peptide-MHC binding, purified MHC/competitive/radioactivity; filed as Kd, often an IC50 or EC50 that approximates it; bounds were set here for any values at or beyond the usual limits of such assays
condition_parameters: source organism: Mammarenavirus lassaense
pKd: −log10 of the molar value.
Catalogue of pKd readings, one per entry.

Answered cases to consult:
Kindly state the measured pKd obtained for HDFGIPTPS with HLA-B*44:02.
≤ 4.17

Request body: readout pKd, system HLA-B*44:02, query SEAQMSIQLI . Return the value.
7.52

Now look at this entry.
What pKd appears in the records for this sequence with HLA-B*44:02? PDYKRPGVS
≤ 4.11

====

target_or_test_system: HLA-B*51:01
protocol_notes: IEDB peptide-MHC binding, purified MHC/competitive/fluorescence; filed as Kd, often an IC50 or EC50 that approximates it; bounds were set here for any values at or beyond the usual limits of such assays
condition_parameters: source organism: Escherichia coli K-12
measurement_label: Kd
Put your answer as a value accompanied by its unit after it.

Find Kd (HLA-B*51:01) for the entry YPYSDDLTI
281 nM

====

target_or_test_system: HLA-B*54:01
protocol_notes: IEDB peptide-MHC binding, purified MHC/competitive/radioactivity; filed as Kd, often an IC50 or EC50 that approximates it; bounds were set here for any values at or beyond the usual limits of such assays
condition_parameters: source organism: Mammarenavirus juninense
pKd: −log10 of the molar value.
measurement_label: pKd

Short answer please: pKd, HLA-B*54:01, entry TPDNFSSLI
≤ 4.11

====

target_or_test_system: HLA-A*11:01
protocol_notes: IEDB peptide-MHC binding, purified MHC/competitive/fluorescence; filed as Kd, often an IC50 or EC50 that approximates it; bounds were set here for any values at or beyond the usual limits of such assays
condition_parameters: source organism: Entamoeba histolytica HM-1:IMSS
pKd: −log10 of the molar value.
measurement_label: pKd

Form field: reported pKd of IESNPLFPV
≤ 5.30
